Below, each of the compounds is paired with its reported pIC50 value.
Molecular target: BTK (Homo sapiens, UniProt Q06187)
Construct: purchased Nanosyn, Santa Clara, Calif; host or cells: 293HEK
Sequence (Q06187 whole entry): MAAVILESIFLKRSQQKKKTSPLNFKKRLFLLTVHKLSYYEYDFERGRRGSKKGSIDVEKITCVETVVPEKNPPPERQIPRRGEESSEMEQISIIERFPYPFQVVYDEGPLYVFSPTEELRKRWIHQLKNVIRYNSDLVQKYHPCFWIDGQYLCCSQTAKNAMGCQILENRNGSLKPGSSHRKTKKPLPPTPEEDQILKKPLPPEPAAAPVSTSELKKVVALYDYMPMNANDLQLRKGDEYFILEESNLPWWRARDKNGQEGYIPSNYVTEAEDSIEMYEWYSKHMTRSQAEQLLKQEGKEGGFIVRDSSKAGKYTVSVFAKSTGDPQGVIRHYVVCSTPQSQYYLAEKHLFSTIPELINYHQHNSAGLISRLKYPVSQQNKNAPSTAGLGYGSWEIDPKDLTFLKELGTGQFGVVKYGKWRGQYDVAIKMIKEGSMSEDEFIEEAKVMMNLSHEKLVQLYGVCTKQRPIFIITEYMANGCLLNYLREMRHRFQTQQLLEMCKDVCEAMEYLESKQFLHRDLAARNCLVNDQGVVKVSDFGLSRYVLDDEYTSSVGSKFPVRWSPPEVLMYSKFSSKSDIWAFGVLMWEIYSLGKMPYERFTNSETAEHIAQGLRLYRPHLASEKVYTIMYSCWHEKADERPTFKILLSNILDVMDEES
Assay: BTK kinase electrophoretic mobility shift assay (MSA)
Type: biochemical
Conditions: 50 μM ATP, 0.5 nM BTK enzyme (Nanosyn-293HEK, WT), 3 hours at 25° C.; all examples except 50, 51, 62 and 63; read-out: BTK IC50
Hey, just a heads up that pIC50 is the negative log base 10 of the concentration in molar.

Example compounds with recorded pIC50:
1) C=CC(=O)N1CCN(C2CCNc3c2nn(-c2ccc(Oc4ccccc4)cc2)c3C(N)=O)CC12CCC2 (stereo not shown) [Example 26] | 8.67
2) CC#CC(=O)N1CCN([C@@H]2CCNc3c2nn(-c2ccc(Oc4ccccc4)cc2)c3C(N)=O)CC1 (single isomer, unassigned) [Example 40] | 7.31
3) C/C=C/C(=O)N1CCN([C@@H]2CCNc3c2nn(-c2ccc(Oc4ccccc4)cc2)c3C(N)=O)CC1 [Example 47] | 6.09

Task: Could you tell me which pIC50 is on file for C=CC(=O)N1CCN([C@@H]2CCNc3c2nn(-c2ccc(Oc4ccccc4C(F)(F)F)cc2)c3C(N)=O)CC1 [Example 60] ?
Result: 8.85

Task: Could you tell me which pIC50 is on file for C=CC(=O)N1CCN(C2CCNc3c2nn(-c2ccc(Oc4ccc(F)cc4F)cc2)c3C(N)=O)CC1 (stereo not shown) [Example 36] ?
Result: 7.85

Task: Could you tell me which pIC50 is on file for C=CC(=O)N1CCN([C@@H]2CCNc3c2nn(-c2ccc(Oc4ccccc4C)cc2)c3C(N)=O)CC1 [Example 86] ?
Result: 9.15

Task: Could you tell me which pIC50 is on file for C=CC(=O)N1C[C@@H]2C[C@H]1CN2C1CCNc2c1nn(-c1ccc(Oc3ccccc3)cc1)c2C(N)=O (stereo partly shown) [Example 34] ?
Result: 7.90
